Data origin: the supplement of paper PMC10567573

- assay-name: protein stability index of a GFP-peptide fusion (GPS, HEK-293T) (PSI 1-6); higher = more stable;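 also: 24-mer peptide tiles fused after GFP, lentivirally expressed, FACS-sorted into six equal bins by GFP/DsRed ratio, decoded by Illumina sequencing, PSI is the read-weighted mean bin number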
- condition-details: treatment: DMSO; c terminus: a fixed tail appended
reported-metric: protein stability index
Reply briefly: the number, and no unit.

Guide cases for protein stability index, answers given:
SLFSYGLRESIASYLSLTSEDNTS [SLA] :: 2.49
PPSNFLEIDIFNPQTVGVGRARFT [SNX12] :: 3.27
AVSCVFLAFVIVLLAHRLRRWHKS [PCDHGA10] :: 2.33

Turning now to a further record.
response.value for FLLSQQTDLPECEQSSARQKASLL [TCF25] (field: protein stability index) = 3.78
